experiment: qHTS to identify inhibitors of the type 1 interferon - major histocompatibility complex class I in skeletal muscle: Secondary screen by immunofluorescence; conditions: C25cl48 myoblasts, IFN-b induced HLA-ABC immunofluorescence, 24 h, Viability; series mostly up to 49.8 µM; further: nearly all actives have a fitted effect of over 70% in size
Inconclusive results are not listed. Calls of active or inactive are those of the source. The call rests on the fitted dose curve; in most records, active means well fitted inhibition curve with a large enough effect; inconclusive means small, poorly fitted or top-dose-only effect; inactive means no such curve, though single readings can be large or run the other way.
Just give me one of these, please: true = active, false = inactive

- O=C1NCCc2[nH]c(-c3ccncc3)cc21: false
- Nc1nc(Nc2ccc(S(N)(=O)=O)cc2)nn1C(=O)c1c(F)cccc1F: false
- C1=C/COCc2cc(ccc2OCCN2CCCC2)Nc2nccc(n2)-c2cccc(c2)COC/1: true
- COc1c(C)cnc(Cn2cnc3c(Cl)nc(N)nc32)c1C: false
- O=C(/C=C/c1cccc(S(=O)(=O)Nc2ccccc2)c1)NO: false
- C=C1C(=O)O[C@@H]2[C@H]3O[C@]3(C)CCC=C(C)CC[C@@H]12: true
- Cc1c(C(=O)Nc2ccc(Oc3ccnc4[nH]cc(-c5ccccc5)c34)c(F)c2)c(=O)n(-c2ccc(F)cc2)n1C: false
- CC[C@@]1(O)C(=O)OCc2c1cc1n(c2=O)Cc2c-1nc1cc(F)c(C)c3c1c2[C@@H](N)CC3: false
- C[C@]12C=CC(=O)C=C1CC[C@H]1[C@@H]3C[C@@H](O)[C@](O)(C(=O)CO)[C@@]3(C)C[C@H](O)[C@@]12F: false
- CC1=C(CO)C(=O)O[C@@H]([C@@H](C)[C@H]2CC[C@H]3[C@@H]4C[C@H]5O[C@]56[C@@H](O)C=CC(=O)[C@]6(C)[C@H]4CC[C@]23C)C1: true

// switching to the query compound
Ask: Tell me the recorded outcome of this test for Fc1cccc(-n2cnc3c(NCc4nc5c(F)c(F)ccc5[nH]4)nc(N4CCOCC4)nc32)c1 .
Result: false
